system: HSC-2 (Oral Cavity Carcinoma); test: combination Emax (second highest fraction inhibited in the dose matrix, 72 h); higher = more inhibition; extreme values may be limits of the assay
Could you label it Met if measured combination Emax is 0.7 or higher, and Not met otherwise?

MOLECULE | STUDY TARGET | LABEL
Cc1c2c(nn1C)CSCc1cc(n(C)n1)CSc1cc(c3ccccc3c1)OCCCc1c(C(=O)O)n(C)c3c-2c(Cl)ccc13 [AZD5991] + CS(=O)(=O)CCNCc1ccc(-c2ccc3ncnc(Nc4ccc(OCc5cccc(F)c5)c(Cl)c4)c3c2)o1 [Lapatinib] (first compound max 1 µM, 7x7, partner max 10 µM) | HSC-2 (Oral Cavity Carcinoma) | Met
Cc1c2c(nn1C)CSCc1cc(n(C)n1)CSc1cc(c3ccccc3c1)OCCCc1c(C(=O)O)n(C)c3c-2c(Cl)ccc13 [AZD5991] + C1CN(CCC1(C(=O)N[C@@H](CCO)C2=CC=C(C=C2)Cl)N)C3=NC=NC4=C3C=CN4 [Capivasertib] (first compound max 1 µM, 7x7, partner max 3 µM) | HSC-2 (Oral Cavity Carcinoma) | Met
O=C(c1cc(Cc2n[nH]c(=O)c3ccccc23)ccc1F)N1CCN(C(=O)C2CC2)CC1 [Olaparib] + COc1nnc2ccc(N3CCC(c4ccc(OCCN5CCN(C)C(=O)[C@H]5C)cc4)CC3)nn12 [AZD5153] (first compound max 10 µM, 7x7, partner max 1 µM) | HSC-2 (Oral Cavity Carcinoma) | Not met
C=CCn1c(=O)c2cnc(Nc3ccc(N4CCN(C)CC4)cc3)nc2n1-c1cccc(C(C)(C)O)n1 [AZD1775] + C[C@@H]1COCCN1C2=NC(=NC(=C2)C3(CC3)[S@](=N)(=O)C)C4=C5C=CNC5=NC=C4 [AZD6738] (first compound max 1 µM, partner max 10 µM) | HSC-2 (Oral Cavity Carcinoma) | Met
CN(C)CCCOc1ccc(-c2ccc3ncc4c(c3c2)n(C2CCOCC2)c(=O)n4C)cn1 [AZD0156] + CCN(CCO)CCCOc1ccc2c(Nc3cc(CC(=O)Nc4cccc(F)c4)[nH]n3)ncnc2c1 [AZD2811] (first compound max 1 µM, 7x7, partner max 1 µM) | HSC-2 (Oral Cavity Carcinoma) | Not met

Next, consider the following molecule.
Prompt: For this molecule, is measured combination Emax 0.7 or higher? O=C(c1cc(Cc2n[nH]c(=O)c3ccccc23)ccc1F)N1CCN(C(=O)C2CC2)CC1 [Olaparib] + CC1(C)CCC(CN2CCN(c3ccc(C(=O)NS(=O)(=O)c4ccc(NCC5CCOCC5)c([N+](=O)[O-])c4)c(Oc4cnc5[nH]ccc5c4)c3)CC2)=C(c2ccc(Cl)cc2)C1 [Venetoclax] (first compound max 10 µM, 7x7, partner max 1 µM)
Completion: Not met

----------
tested on: PFSK-1 (Other Solid Carcinomas); assay: combination Emax (second highest fraction inhibited in the dose matrix, 72 h); higher = more inhibition; extreme values may be limits of the assay
I'd appreciate it if you could supply combination Emax values for the items below.
One number for each entry.

Look over these answered cases.
COMPOUND | combination Emax
C[C@@H](c1ccc2nccn2c1)n1nnc2ncc(-c3cnn(C)c3)nc21 [Savolitinib] + CC1(C)CCC(CN2CCN(c3ccc(C(=O)NS(=O)(=O)c4ccc(NCC5CCOCC5)c([N+](=O)[O-])c4)c(Oc4cnc5[nH]ccc5c4)c3)CC2)=C(c2ccc(Cl)cc2)C1 [Venetoclax] (first compound max 1 µM, 7x7, partner max 1 µM) | 0.302
CS(=O)(=O)CCNCc1ccc(-c2ccc3ncnc(Nc4ccc(OCc5cccc(F)c5)c(Cl)c4)c3c2)o1 [Lapatinib] + C[C@@H](Oc1cc(-c2cnn(C3CCNCC3)c2)cnc1N)c1c(Cl)ccc(F)c1Cl [Crizotinib] (first compound max 10 µM, 7x7, partner max 10 µM) | 0.956
NC1(C(=O)N[C@@H](CCO)c2ccc(Cl)cc2)CCN(c2ncnc3[nH]ccc23)CC1 [Capivasertib] + CC(=O)c1c(C)c2cnc(Nc3ccc(N4CCNCC4)cn3)nc2n(C2CCCC2)c1=O [Palbociclib] (first compound max 10 µM, 7x7, partner max 10 µM) | 0.489
CC1(C)CCC(CN2CCN(c3ccc(C(=O)NS(=O)(=O)c4ccc(NCC5CCOCC5)c([N+](=O)[O-])c4)c(Oc4cnc5[nH]ccc5c4)c3)CC2)=C(c2ccc(Cl)cc2)C1 [Venetoclax] + Cc1cc2ncnn2cc1Nc1ncc2c(n1)n(C1CCOCC1)c(=O)n2C [AZD7648] (first compound max 1 µM, 7x7, partner max 10 µM) | 0.489
C[C@@H](c1ccc2nccn2c1)n1nnc2ncc(-c3cnn(C)c3)nc21 [Savolitinib] + CN(CC[C@H](CSC1=CC=CC=C1)NC2=C(C=C(C=C2)S(=O)(=O)NC(=O)C3=CC=C(C=C3)N4CCC(CC4)[C@H](C5=CC=CC=C5C6=CC=C(C=C6)Cl)O)S(=O)(=O)C(F)(F)F)CCO [AZD4320] (first compound max 1 µM, 7x7, partner max 1 µM) | 0.329

Count: 2. Required value per item: combination Emax.
1. Cc1nc(Nc2ncc(C(=O)Nc3c(C)cccc3Cl)s2)cc(N2CCN(CCO)CC2)n1 [Dasatinib] + CC(=O)Nc1cccc(-n2c(=O)n(C3CC3)c(=O)c3c(Nc4ccc(I)cc4F)n(C)c(=O)c(C)c32)c1 [Trametinib] (first compound max 2 µM, 7x7, partner max 1 µM)
2. COc1nnc2ccc(N3CCC(c4ccc(OCCN5CCN(C)C(=O)[C@H]5C)cc4)CC3)nn12 [AZD5153] + Cn1cnc2c(F)c(Nc3ccc(Br)cc3Cl)c(C(=O)NOCCO)cc21 [Selumetinib] (first compound max 1 µM, 7x7, partner max 10 µM)

Completion:
0.338
0.664

----------
system: KINGS-1 (Low Grade Glioma); assay: combination Emax (second highest fraction inhibited in the dose matrix, 72 h); higher = more inhibition; extreme values may be limits of the assay
Lab note: compare combination Emax against 0.5. Equal or greater, write 1. Smaller, write -1.

Worked examples, 5 compounds total:
COMPOUND | LABEL
N#Cc1cnc(Nc2cc(NC[C@H]3CNCCO3)c(C(F)(F)F)cn2)cn1 [SRA737] + CCc1c2c(nc3ccc(O)cc13)-c1cc3c(c(=O)n1C2)COC(=O)[C@]3(O)CC [SN-38] (first compound max 10 µM, 7x7, partner max 0.3 µM) | -1
CS(=O)(=O)CCNCc1ccc(-c2ccc3ncnc(Nc4ccc(OCc5cccc(F)c5)c(Cl)c4)c3c2)o1 [Lapatinib] + Cn1cnc2c(F)c(Nc3ccc(Br)cc3Cl)c(C(=O)NOCCO)cc21 [Selumetinib] (first compound max 10 µM, 7x7, partner max 10 µM) | -1
CC(=O)Nc1cccc(-n2c(=O)n(C3CC3)c(=O)c3c(Nc4ccc(I)cc4F)n(C)c(=O)c(C)c32)c1 [Trametinib] + Cc1nc(-c2cn3c(n2)-c2ccc(-c4cnn(C(C)(C)C(N)=O)c4)cc2OCC3)n(C(C)C)n1 [Taselisib] (first compound max 1 µM, 7x7, partner max 10 µM) | 1
C[C@@H](Nc1cc(F)cc(F)c1)c1cc(C(=O)N(C)C)cc2c(=O)cc(N3CCOCC3)oc12 [AZD8186] + CC(=O)c1c(C)c2cnc(Nc3ccc(N4CCNCC4)cn3)nc2n(C2CCCC2)c1=O [Palbociclib] (first compound max 10 µM, 7x7, partner max 10 µM) | -1
CC1(C)CCC(CN2CCN(c3ccc(C(=O)NS(=O)(=O)c4ccc(NCC5CCOCC5)c([N+](=O)[O-])c4)c(Oc4cnc5[nH]ccc5c4)c3)CC2)=C(c2ccc(Cl)cc2)C1 [Venetoclax] + C1CN(CCC1(C(=O)N[C@@H](CCO)C2=CC=C(C=C2)Cl)N)C3=NC=NC4=C3C=CN4 [Capivasertib] (first compound max 1 µM, 7x7, partner max 3 µM) | -1

Prompt: For this compound, is measured combination Emax 0.5 or higher? CN(CCO)CC[C@H](CSc1ccccc1)Nc1ccc(S(=O)(=O)NC(=O)c2ccc(N3CCC([C@@H](O)c4ccccc4-c4ccc(Cl)cc4)CC3)cc2)cc1S(=O)(=O)C(F)(F)F [AZD4320] + Cn1cnc2c(F)c(Nc3ccc(Br)cc3Cl)c(C(=O)NOCCO)cc21 [Selumetinib] (first compound max 1 µM, 7x7, partner max 3 µM)
Completion: -1

----------
tested on: EW-3 (Ewing's Sarcoma); test: combination Emax (second highest fraction inhibited in the dose matrix, 72 h); higher = more inhibition; extreme values may be limits of the assay
ASSAY READOUT: combination Emax
One number for each entry.

For each of the items listed, what is its combination Emax?
1. Cc1c2c(nn1C)CSCc1cc(n(C)n1)CSc1cc(c3ccccc3c1)OCCCc1c(C(=O)O)n(C)c3c-2c(Cl)ccc13 [AZD5991] + Cc1cc2ncnn2cc1Nc1ncc2c(n1)n(C1CCOCC1)c(=O)n2C [AZD7648] (first compound max 1 µM, 7x7, partner max 10 µM)
2. C[C@@H]1COCCN1c1cc(C2([S@](C)(=N)=O)CC2)nc(-c2ccnc3[nH]ccc23)n1 [AZD6738] + C1CC(C1)(C(=O)[O-])C(=O)[O-].N.N.[Pt+2] [Carboplatin] (first compound max 10 µM, 7x7, partner max 10 µM)

Completion:
0.727
0.77

Where these numbers come from: the supplement of paper PMC11061612
